Test system: HepG2 cell line
ASSAY: In vitro toxicity study on HepG2 cell line (resazurin, viability and IC50)
Format: cell-based, human
STUDY_CONDITIONS: HepG2 cells, 400 μM lipid, 48 h post-treatment, resazurin, relative to ethanol vehicle controls
MEASURE_NAME: Viability (%) at different lipid concentrations, mean

[[record]]
compound = "CCCCC/C=C\\C/C=C\\CCCCCCCCOC(CCCCCCCCCCCCCCC)O[Si](C)(C)OCCCCCCN(CCO)CCO (centres unmarked) [Example 43]"
measurement_unit = "%"
recorded_value = 92.1

[[record]]
compound = "CCCCC/C=C\\C/C=C\\CCCCCCCCOC(CCCCCCC/C=C\\C/C=C\\CCCCC)O[Si](C)(C)OCCCCCCN(CCO)CCO (centres unmarked) [Example 48]"
measurement_unit = "%"
recorded_value = 98.4

[[record]]
compound = "CCCCCCCCCCCCCCCCOC(CCCCCCCCCCCCCCC)O[Si](C)(C)OCCCCCCN(CCO)CCO (centres unmarked) [Example 49]"
measurement_unit = "%"
recorded_value = 112.6

[[record]]
compound = "CCCCCCCC/C=C\\CCCCCCCCOC(CCCCCCCCCCCCCCC)O[Si](C)(C)OCCCCCCN(CCO)CCO (centres unmarked) [Example 41]"
measurement_unit = "%"
recorded_value = 91.5

[[record]]
compound = "CCCCCCCC/C=C\\CCCCCCCCOC(=O)C(C)(C)CC(OCCCCCCCC/C=C\\CCCCCCCC)O[Si](C)(C)OCCCCCCN(C)CCCCO (centres unmarked) [Example 91]"
measurement_unit = "%"
recorded_value = 61.2

[[record]]
compound = "CCCCCCCC/C=C\\CCCCCCCCOC(CCCCCCC/C=C\\CCCCCCCC)O[Si](C)(C)OCCCCCCN(C)[C@H](CO)Cc1ccccc1 (some centres unmarked) [Example 78]"
measurement_unit = "%"
recorded_value = 56.4

[[record]]
compound = "CCCCCCCC/C=C\\CCCCCCCCOC(=O)C(C)(C)CC(OCCCCCCCC/C=C\\CCCCCCCC)O[Si](C)(C)OCCCCCCN1CCCC1CO (centres unmarked) [Example 90]"
measurement_unit = "%"
recorded_value = 93.1

[[record]]
compound = "CCCCCCCCCCCOC(=O)CCCCCN(CCO)CCCCCCCC(=O)OC(CCCCCCCC)CCCCCCCC [SM-102, reference compound]"
measurement_unit = "%"
recorded_value = 0.2

[[record]]
compound = "CCCCC/C=C\\C/C=C\\CCCCCCCCO[Si](C)(C)OC(CCCCCCC/C=C\\C/C=C\\CCCCC)OCCCN(C)C (centres unmarked) [Example 80]"
measurement_unit = "%"
recorded_value = 0.79

[[record]]
compound = "CCCCC/C=C\\C/C=C\\CCCCCCCCOC(CCCCCCC/C=C\\C/C=C\\CCCCC)O[Si](C)(C)OCCCCCCN(C)CC(O)CO (centres unmarked) [Example 59]"
measurement_unit = "%"
recorded_value = 18.1

[[record]]
compound = "CCCCC/C=C\\C/C=C\\CCCCCCCCOC(CCCCCCC/C=C\\C/C=C\\CCCCC)O[Si](C)(C)OCCCCCCN(CCCCO)CCCCO (centres unmarked) [Example 62]"
measurement_unit = "%"
recorded_value = "−0.6"

[[record]]
compound = "CCCCC/C=C\\C/C=C\\CCCCCCCC(OCCCCCCCCCCCCCCCC)O[Si](C)(C)OCCCCCCN(CCO)CCO (centres unmarked) [Example 44]"
measurement_unit = "%"
recorded_value = 103.0

[[record]]
compound = "CCCCC/C=C\\C/C=C\\CCCCCCCCOC(CCCCCCC/C=C\\C/C=C\\CCCCC)O[Si](C)(C)OCCCCCCN(CCCO)CCCO (centres unmarked) [Example 61]"
measurement_unit = "%"
recorded_value = "−0.5"

[[record]]
compound = "CCCCCCCC/C=C\\CCCCCCCCOC(=O)C(C)(C)CC(OCCCCCCCC/C=C\\CCCCCCCC)O[Si](C)(C)OCCCCCCN(C)CC(O)CO (centres unmarked) [Example 92]"
measurement_unit = "%"
recorded_value = 63.8


###

System: HeLa cells
ASSAY: Transfection efficiency with Luciferase (SecNLuc) mRNA, Nano-Glo assay (Method A)
Assay type: cell-based
STUDY_CONDITIONS: Luc mRNA, 10 ng mRNA/well, 24 h, luminescence
Please note: Transfection 10 ng mRNA exactly at 100000 is Criterion not met. Only values below 100000 get Criterion met.

[[record]]
compound = "CCCCC/C=C\\C/C=C\\CCCCCCCCOC(CCCCCCC/C=C\\C/C=C\\CCCCC)O[Si](C)(C)OCCCCCCN(C)CC(O)CO (stereo not drawn)"
test_target = "HeLa cells"
class = "Criterion met"

[[record]]
compound = "CCCCCCCC/C=C\\CCCCCCCCOC(=O)C(C)(C)CCC(OCCCCCCCC/C=C\\CCCCCCCC)O[Si](C)(C)OCCCCCCN1CCOCC1 (stereo not drawn)"
test_target = "HeLa cells"
class = "Criterion met"

[[record]]
compound = "C#CCN(C)CCCCCCO[Si](C)(C)OC(CC(C)(C)C(=O)OCCCCCCCC/C=C\\CCCCCCCC)OCCCCCCCC/C=C\\CCCCCCCC (stereo not drawn)"
test_target = "HeLa cells"
class = "Criterion met"

[[record]]
compound = "CCCCC/C=C\\C/C=C\\CCCCCCCCOC(CCCCCCC/C=C\\CCCCCCCC)O[Si](C)(C)OCCCCCCN(CCO)CCO (stereo not drawn)"
test_target = "HeLa cells"
class = "Criterion not met"

[[record]]
compound = "CCCCC/C=C\\C/C=C\\CCCCCCCCO[Si](C)(C)OC(CCCCCCC/C=C\\C/C=C\\CCCCC)OCCCCCCN(CCO)CCO (stereo not drawn)"
test_target = "HeLa cells"
class = "Criterion not met"

[[record]]
compound = "CCCCCCCC/C=C\\CCCCCCCCOC(=O)C(C)(C)CC(OCCCCCCCC/C=C\\CCCCCCCC)O[Si](C)(C)OCCCCCCN(CCO)CCN(CCO)CCCCCCO[Si](C)(C)OC(CC(C)(C)C(=O)OCCCCCCCC/C=C\\CCCCCCCC)OCCCCCCCC/C=C\\CCCCCCCC (stereo not drawn)"
test_target = "HeLa cells"
class = "Criterion met"

[[record]]
compound = "CCCCC/C=C\\C/C=C\\CCCCCCCCOC(CCCCCCC/C=C\\C/C=C\\CCCCC)O[Si](C)(C)OCCCCCCN(CCO)CCO (stereo not drawn)"
test_target = "HeLa cells"
class = "Criterion met"

[[record]]
compound = "CCCCC/C=C\\C/C=C\\CCCCCCCCOC(CCCCCN(C)CC(O)CO)O[Si](C)(C)OCCCCCCCC/C=C\\C/C=C\\CCCCC (stereo not drawn)"
test_target = "HeLa cells"
class = "Criterion not met"

[[record]]
compound = "CCCCCCCC/C=C\\CCCCCCCCOC(CC[C@@H](C)C1CCC2C3CCC4C[C@H](OC)CC[C@]4(C)C3CC[C@@]21C)O[Si](C)(C)OCCCCCCN(CCO)CCO (stereo partly drawn)"
test_target = "HeLa cells"
class = "Criterion met"

[[record]]
compound = "CCCCCCCCC(CCCCCC)C(=O)OCCCCCCN(CCCCO)CCCCCCOC(=O)C(CCCCCC)CCCCCCCC (stereo not drawn) [ALC-0315, reference compound]"
test_target = "HeLa cells"
class = "Criterion not met"

[[record]]
compound = "CCCCC/C=C\\C/C=C\\CCCCCCCCOC(CCCCCCC/C=C\\C/C=C\\CCCCC)O[Si](C)(C)OCCCCCCN1CCN(CCO)CC1 (stereo not drawn)"
test_target = "HeLa cells"
class = "Criterion met"

[[record]]
compound = "CCCCC/C=C\\C/C=C\\CCCCCCCCOC(CCCCCCC/C=C\\C/C=C\\CCCCC)O[Si](C)(C)OCCCCCCN1CCOCC1 (stereo not drawn)"
test_target = "HeLa cells"
class = "Criterion not met"


###

Viability (%) at different lipid concentrations, mean values, listed per item
System: HepG2 cell line
ASSAY: In vitro toxicity study on HepG2 cell line (resazurin, viability and IC50)
Assay type: cell-based, human
STUDY_CONDITIONS: HepG2 cells, 100 μM lipid, 48 h post-treatment, resazurin, relative to ethanol vehicle controls
Protocol: The synthesized lipids were tested in term of in vitro transfection efficacy and toxicity on HeLa cells. In order to perform the mentioned biological tests, appropriate LNPs had to be formulated from the synthesized lipids. The formulation technique was different in Method A and B. The particle size, polydispersity index (PDI) and zeta potential of resulting LNPs were determined by means of Dynamic Light Scattering technique (DLS). […]
MEASURE_NAME: Viability (%) at different lipid concentrations, mean

[[record]]
compound = "CCCCCCCC/C=C\\CCCCCCCC(OCCCCCCCCCCCC1CCCCC1)O[Si](C)(C)OCCCCCCN(CCO)CCO (stereo not shown) [Example 74]"
recorded_value = 121.9

[[record]]
compound = "CCCCCCCC/C=C\\CCCCCCCC(OCCCCCCCCCCCCCCC(C)C)O[Si](C)(C)OCCCCCCN(CCO)CCO (stereo not shown) [Example 76]"
recorded_value = 112.3

[[record]]
compound = "CCCCCCCC/C=C\\CCCCCCCC(OCCC(C)CCCC(C)CCCC(C)CCCC(C)C)O[Si](C)(C)OCCCCCCN(CCO)CCO (stereo not shown) [Example 75]"
recorded_value = 102.8

[[record]]
compound = "CCCCCCCC/C=C\\CCCCCCCC(OCCCCCCCCCCCCCCCC)O[Si](C)(C)OCCCCCCN(CCO)CCO (stereo not shown) [Example 42]"
recorded_value = 107.6

[[record]]
compound = "CCCCC/C=C\\C/C=C\\CCCCCCCCOC(CCCCCCC/C=C\\C/C=C\\CCCCC)O[Si](C)(C)OCCCCCCN(C)C (stereo not shown) [Example 79]"
recorded_value = 99.49

[[record]]
compound = "CCCCCCCCO[Si](C)(C)O[Si](C)(C)OC(CCCCCCC)OCCCCCCN(C)CCN(C)CCN(C)CCCCCCOC(CCCCCCC)O[Si](C)(C)O[Si](C)(C)OCCCCCCCC (stereo not shown) [Example 83]"
recorded_value = 83.41

[[record]]
compound = "CCCCCCCC/C=C\\CCCCCCCCOC(CCCCCCCCCCCCCCC)O[Si](C)(C)OCCCCCCN(CCO)CCO (stereo not shown) [Example 41]"
recorded_value = 113.2

[[record]]
compound = "CCCCC/C=C\\C/C=C\\CCCCCCCCOC(CCCCCCC/C=C\\C/C=C\\CCCCC)O[Si](C)(C)OCCCCCCN1CCCCC1 (stereo not shown) [Example 57]"
recorded_value = 90.5

[[record]]
compound = "CCCCCCCC/C=C\\CCCCCCCCOC(CCCCCCC/C=C\\CCCCCCCC)O[Si](C)(C)OCCCCCCN(C)[C@H](CO)Cc1ccccc1 (stereo partly shown) [Example 78]"
recorded_value = 101.9

[[record]]
compound = "CCCCCCCC/C=C\\CCCCCCCCOC(=O)C(C)(C)CC(OCCCCCCCC/C=C\\CCCCCCCC)O[Si](C)(C)OCCCCCCN(CCO)CCN(CCO)CCCCCCO[Si](C)(C)OC(CC(C)(C)C(=O)OCCCCCCCC/C=C\\CCCCCCCC)OCCCCCCCC/C=C\\CCCCCCCC (stereo not shown) [Example 96]"
recorded_value = 95.63

[[record]]
compound = "CCCCCCCC/C=C\\CCCCCCCCOC(CCCCCCC/C=C\\CCCCCCCC)O[Si](C)(C)OCCCCCCN(CCO)CCO (stereo not shown) [Example 47]"
recorded_value = 112.3

[[record]]
compound = "CCCCC/C=C\\C/C=C\\CCCCCCCC(OCCCCCCCCCCCCCCCC)O[Si](C)(C)OCCCCCCN(CCO)CCO (stereo not shown) [Example 44]"
recorded_value = 122.0

[[record]]
compound = "CCCCC/C=C\\C/C=C\\CCCCCCCC(OCCCCCCCC/C=C\\CCCCCCCC)O[Si](C)(C)OCCCCCCN(CCO)CCO (stereo not shown) [Example 45]"
recorded_value = 109.5

